Biological target: Clk1 (Homo sapiens, UniProt P49759)
Sequence (P49759 whole entry): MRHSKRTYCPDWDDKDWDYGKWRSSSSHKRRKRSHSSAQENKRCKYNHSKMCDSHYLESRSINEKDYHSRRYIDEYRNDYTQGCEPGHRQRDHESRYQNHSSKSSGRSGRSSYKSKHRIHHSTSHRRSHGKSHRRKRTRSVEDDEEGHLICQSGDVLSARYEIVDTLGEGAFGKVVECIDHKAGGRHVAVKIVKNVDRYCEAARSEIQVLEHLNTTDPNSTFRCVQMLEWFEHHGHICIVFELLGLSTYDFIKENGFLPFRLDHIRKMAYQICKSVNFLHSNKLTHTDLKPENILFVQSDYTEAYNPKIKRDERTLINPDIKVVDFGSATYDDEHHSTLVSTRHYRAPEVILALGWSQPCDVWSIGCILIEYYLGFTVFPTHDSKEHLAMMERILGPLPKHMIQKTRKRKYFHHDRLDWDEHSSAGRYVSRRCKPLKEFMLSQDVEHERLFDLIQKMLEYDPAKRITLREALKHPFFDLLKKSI
Assay: Clk1 kinase inhibition assay (15 μM ATP)
Type: biochemical
Parameters: purchased Life Technologies PV3315
Conditions: ratio of Clk2 and Clk1 IC50
ENDPOINT_LABEL: Selectivity Factor for Clk1 over Clk2
Form rule: numeric answer, no unit written next to it.

Some solved entries appear below for comparison.
compound="COc1ccc2sc(C(=O)N(C)Cc3cc(C)cc(F)c3)cc2c1 [Compound 15b]" endpoint_label="Selectivity Factor for Clk1 over Clk2" reported_measurement=15
compound="COc1ccc2sc(C(=O)N(C)Cc3cc(F)cc(F)c3)cc2c1 [Compound 10b]" endpoint_label="Selectivity Factor for Clk1 over Clk2" reported_measurement=10

Looking up COc1ccc2sc(C(=O)N(C)Cc3cccc(Cl)c3)cc2c1 , I found its Selectivity Factor for Clk1 over Clk2 recorded as 16

These measurements were taken from paper PMC7918793.
